IC50 listing for selected binders.
target: T1, HLA-DR3 (human); test: competitive inhibition of 125I-labeled probe peptide binding to purified HLA-DR3; settings: remark: other sources report otherwise
T1 chain 1: not shown
T1 chain 2: not shown

binder | IC50
CWMIDSECRPRFREL [Her2/neu.958] | < 1000 nM
WDQLFRNPHQALLHT [Her2/neu.482] | < 1000 nM
